Test: Selectivity index, ratio of IC50 for cytotoxicity against human Jurkat T cells by MTT assay to EC50 for antiproliferative activity against human Jurkat T cells by VPD450 staining based flow cytometry
Where a SMILES comes first, the peptide text is derived from it. [ ]: non-standard residue; d: D form. The star is where a group is joined. Mycophenolyl = COc1c(C)c2c(c(O)c1C/C=C(\C)CCC(=O)*)C(=O)OC2; Arg(NO2) = N=C(NCCC[C@H](N)C(=O)O)N[N+](=O)[O-]; βAla = NCCC(=O)O
Measured property: Ratio IC50/EC50
Answers are plain numbers.

Compound: COC(=O)[C@@H](NC(=O)CC/C(C)=C/Cc1c(O)c2c(c(C)c1OC)COC2=O)[C@@H](C)O
Ratio IC50/EC50: 1.8

Quick request: Ratio IC50/EC50 for each listed item, please.
1. COC(=O)C[C@H](NC(=O)CC/C(C)=C/Cc1c(O)c2c(c(C)c1OC)COC2=O)C(=O)OC
2. COc1c(C)c2c(c(O)c1C/C=C(\C)CCC(=O)N[C@@H](CC(=O)O)C(=O)O)C(=O)OC2

// result
[1.2, 1.4]

Quick request: Ratio IC50/EC50 for each listed item, please.
1. CC[C@H](C)[C@H](N)C(=O)NCCCC[C@H](NC(=O)[C@@H](NC(=O)CC/C(C)=C/Cc1c(O)c2c(c(C)c1OC)COC2=O)[C@@H](C)O)C(=O)N1CCC[C@H]1C(=O)N[C@@H](CCCNC(=N)N[N+](=O)[O-])C(=O)OC (Mycophenolyl-TK(Ile)P[Arg(NO2)]-OMe)
2. COC(=O)[C@@H](CCCNC(=N)N[N+](=O)[O-])NC(=O)CC/C(C)=C/Cc1c(O)c2c(c(C)c1OC)COC2=O
3. COC(=O)[C@H](CCCNC(=N)N[N+](=O)[O-])NC(=O)[C@@H]1CCCN1C(=O)[C@H](CCCCNC(=O)CCN)NC(=O)[C@@H](NC(=O)CC/C(C)=C/Cc1c(O)c2c(c(C)c1OC)COC2=O)[C@@H](C)O (Mycophenolyl-TK(βAla)P[Arg(NO2)]-OMe)
4. COc1c(C)c2c(c(O)c1C/C=C(\C)CCC(=O)O)C(=O)OC2

// result
1. 0.9
2. 8.2
3. 1.1
4. 228

###

Tested on: Jurkat
Experiment: Immunosuppression-mediated antiproliferative activity against human Jurkat T cells assessed as inhibition of cell growth incubated for 48 hrs by VPD450 staining based flow cytometry
Format: functional
Where a SMILES comes first, the peptide text is derived from it. [ ]: non-standard residue; d: D form. The star is where a group is joined. Mycophenolyl = COc1c(C)c2c(c(O)c1C/C=C(\C)CCC(=O)*)C(=O)OC2; Arg(NO2) = N=C(NCCC[C@H](N)C(=O)O)N[N+](=O)[O-]; βAla = NCCC(=O)O
Consider the following compounds; for each one, report its log10(EC50).
A value of 2 here means EC50 of 100 in µM, since values are log10.

These solved cases illustrate the format of a correct answer.
Compound: COC(=O)[C@H](NC(=O)CC/C(C)=C/Cc1c(O)c2c(c(C)c1OC)COC2=O)[C@H](C)O
log10(EC50): 1.15

Compound: COC(=O)[C@@H](CCCNC(=N)N[N+](=O)[O-])NC(=O)CC/C(C)=C/Cc1c(O)c2c(c(C)c1OC)COC2=O
log10(EC50): 1.84

Compound: COC(=O)[C@H](CCCNC(=N)N[N+](=O)[O-])NC(=O)[C@@H]1CCCN1C(=O)[C@H](CCCCNC(=O)CCN)NC(=O)[C@@H](NC(=O)CC/C(C)=C/Cc1c(O)c2c(c(C)c1OC)COC2=O)[C@@H](C)O (Mycophenolyl-TK(βAla)P[Arg(NO2)]-OMe)
log10(EC50): 2.97

Compound: COC(=O)[C@H](CCCNC(=N)N[N+](=O)[O-])NC(=O)[C@@H]1CCCN1C(=O)[C@H](CCCCNC(=O)CN)NC(=O)[C@@H](NC(=O)CC/C(C)=C/Cc1c(O)c2c(c(C)c1OC)COC2=O)[C@@H](C)O (Mycophenolyl-TK(Gly)P[Arg(NO2)]-OMe)
log10(EC50): 3.01

Compound: COC(=O)[C@@H](NC(=O)[C@H](CCCCNC(=O)[C@H](C)N)NC(=O)[C@@H]1CCCN1C(=O)[C@H](CCCNC(=N)N[N+](=O)[O-])NC(=O)CC/C(C)=C/Cc1c(O)c2c(c(C)c1OC)COC2=O)[C@@H](C)O (Mycophenolyl-[Arg(NO2)]PK(Ala)T-OMe)
log10(EC50): 2.92

Quick request: log10(EC50) for each listed item, please.
1. COC(=O)C[C@H](NC(=O)CC/C(C)=C/Cc1c(O)c2c(c(C)c1OC)COC2=O)C(=O)OC
2. COC(=O)[C@@H](NC(=O)[C@H](CCCCN)NC(=O)[C@@H]1CCCN1C(=O)[C@H](CCCNC(=N)N[N+](=O)[O-])NC(=O)CC/C(C)=C/Cc1c(O)c2c(c(C)c1OC)COC2=O)[C@@H](C)O (Mycophenolyl-[Arg(NO2)]PKT-OMe)
3. COC(=O)[C@H](CCCNC(=N)N[N+](=O)[O-])NC(=O)CC/C(C)=C/Cc1c(O)c2c(c(C)c1OC)COC2=O

// result
1: 1.22; 2: 2.82; 3: 1.35

###

Consider the following molecules; for each one, report its pEC50.
Tested on: Jurkat
Experiment: Immunosuppression-mediated antiproliferative activity against human Jurkat T cells assessed as inhibition of cell growth incubated for 48 hrs by VPD450 staining based flow cytometry
Format: functional
Where a SMILES comes first, the peptide text is derived from it. [ ]: non-standard residue; d: D form. The star is where a group is joined. Mycophenolyl = COc1c(C)c2c(c(O)c1C/C=C(\C)CCC(=O)*)C(=O)OC2; Arg(NO2) = N=C(NCCC[C@H](N)C(=O)O)N[N+](=O)[O-]
Numbers only, as −log10 of the molar value.

Molecule: COc1c(C)c2c(c(O)c1C/C=C(\C)CCC(=O)N[C@@H](C(=O)O)[C@H](C)O)C(=O)OC2
Target entity: Jurkat
pEC50: 4.67

Quick request: pEC50 for each listed item, please.
1. COC(=O)[C@H](CCCNC(=N)N[N+](=O)[O-])NC(=O)[C@@H]1CCCN1C(=O)[C@H](CCCCNC(=O)[C@@H](N)CC(C)C)NC(=O)[C@@H](NC(=O)CC/C(C)=C/Cc1c(O)c2c(c(C)c1OC)COC2=O)[C@@H](C)O (Mycophenolyl-TK(Leu)P[Arg(NO2)]-OMe)
2. COC(=O)C(NC(=O)CC/C(C)=C/Cc1c(O)c2c(c(C)c1OC)COC2=O)C(=O)OC
3. COC(=O)[C@@H](NC(=O)[C@H](CCCCNC(=O)[C@@H](N)C(C)C)NC(=O)[C@@H]1CCCN1C(=O)[C@H](CCCNC(=N)N[N+](=O)[O-])NC(=O)CC/C(C)=C/Cc1c(O)c2c(c(C)c1OC)COC2=O)[C@@H](C)O (Mycophenolyl-[Arg(NO2)]PK(Val)T-OMe)
4. CC[C@H](C)[C@H](NC(=O)CC/C(C)=C/Cc1c(O)c2c(c(C)c1OC)COC2=O)C(=O)O
5. COc1c(C)c2c(c(O)c1C/C=C(\C)CCC(=O)N[C@@H](CCCNC(=N)N[N+](=O)[O-])C(=O)O)C(=O)OC2

// result
1: 3.10; 2: 4.19; 3: 3.25; 4: 5.64; 5: 2.92

Quick request: pEC50 for each listed item, please.
1. COC(=O)[C@@H](NC(=O)CC/C(C)=C/Cc1c(O)c2c(c(C)c1OC)COC2=O)[C@@H](C)O
2. COc1c(C)c2c(c(O)c1C/C=C(\C)CCC(=O)N[C@@H](CC(=O)O)C(=O)O)C(=O)OC2
3. COc1c(C)c2c(c(O)c1C/C=C(\C)CCC(=O)N[C@H](C(=O)O)[C@@H](C)O)C(=O)OC2
4. COc1c(C)c2c(c(O)c1C/C=C(\C)CCC(=O)O)C(=O)OC2
5. COc1c(C)c2c(c(O)c1C/C=C(\C)CCC(=O)N[C@H](CCCNC(=N)N[N+](=O)[O-])C(=O)O)C(=O)OC2
6. CC[C@H](C)[C@H](N)C(=O)NCCCC[C@H](NC(=O)[C@@H](NC(=O)CC/C(C)=C/Cc1c(O)c2c(c(C)c1OC)COC2=O)[C@@H](C)O)C(=O)N1CCC[C@H]1C(=O)N[C@@H](CCCNC(=N)N[N+](=O)[O-])C(=O)OC (Mycophenolyl-TK(Ile)P[Arg(NO2)]-OMe)

// result
[5.00, 3.40, 4.08, 6.52, 2.98, 3.03]

###

Assay: Selectivity index, ratio of IC50 for cytotoxicity against human PBMC by MTT assay to EC50 for antiproliferative activity against human PBMC by VPD450 staining based flow cytometry
Where a SMILES comes first, the peptide text is derived from it. [ ]: non-standard residue; d: D form. The star is where a group is joined. Mycophenolyl = COc1c(C)c2c(c(O)c1C/C=C(\C)CCC(=O)*)C(=O)OC2; Arg(NO2) = N=C(NCCC[C@H](N)C(=O)O)N[N+](=O)[O-]
Measured property: Ratio IC50/EC50
Numbers only.

Compound: COC(=O)[C@H](CCCNC(=N)N[N+](=O)[O-])NC(=O)[C@@H]1CCCN1C(=O)[C@H](CCCCNC(=O)CN)NC(=O)[C@@H](NC(=O)CC/C(C)=C/Cc1c(O)c2c(c(C)c1OC)COC2=O)[C@@H](C)O (Mycophenolyl-TK(Gly)P[Arg(NO2)]-OMe)
Ratio IC50/EC50: 1.1

Quick request: Ratio IC50/EC50 for each listed item, please.
1. COC(=O)[C@@H](CCCNC(=N)N[N+](=O)[O-])NC(=O)CC/C(C)=C/Cc1c(O)c2c(c(C)c1OC)COC2=O
2. COC(=O)C[C@H](NC(=O)CC/C(C)=C/Cc1c(O)c2c(c(C)c1OC)COC2=O)C(=O)OC
3. COC(=O)[C@H](NC(=O)CC/C(C)=C/Cc1c(O)c2c(c(C)c1OC)COC2=O)[C@H](C)O

// result
1: 0.7; 2: 2.2; 3: 7.3
